For each of the molecules below, state its T/C.
Test system: P388 leukemia ip, CD2F1 mice, survival T/C
Assay: NCI In Vivo Anticancer Drug Screen. Data for tumor model P388 Leukemia (intraperitoneal) in CD2F1 (CDF1) mice
Conditions: endpoint: median survival time; dose: 200.0 mg/kg/injection; schedule: Q01DX009 (ip); vehicle: saline with Tween-80; higher = longer survival
Toxic doses and inconclusive results are not listed.

Fill in: T/C of CC(=O)CC(=O)Cc1oc2c(C(C)=O)c(O)c(C)c(O)c2c1C is ___
90 % of control

Could you share which T/C value was measured for CC(=O)N1OC2(C)c3ccccc3C1(C)c1ccccc12 ?
92 % of control

Suppose we examine the molecule Cc1ccc(S(=O)(=O)N/N=C/c2cccs2)cc1 ; what T/C value has been reported?
93 % of control

Would you kindly share the measured T/C for CC1=NN(C(=O)c2ccncc2)C(=O)C1N=Nc1ccc(S(N)(=O)=O)cc1 (stereo not drawn) ?
92 % of control

Form field: reported T/C of CCOC(=O)C1OC1(C(F)(F)F)C(F)(F)F (stereo not drawn)
104 % of control

Param item = CC1=NN(C(=O)c2ccncc2)C(=O)C1N=Nc1ccc(-c2ccc(N)cc2)cc1 (stereo not drawn) ; retrieve measured T/C.
96 % of control

T/C lookup needed for OCc1ccc(Cl)cc1Cl , thanks.
109 % of control

Can you share its T/C? I mean this molecule: CC(=Nc1ccccc1)C1=C(O)C(CC(C)C)NC1=O (stereo not drawn)
100 % of control
